EXPERIMENT: yeast display, Sf9 membrane polyspecificity reagent, FACS + sequencing; frameworks hold sequencing errors
REPORTED_ENDPOINT: polyreactivity (PSR sort gate)

- CONSTRUCT_SEQUENCE: "QVQLVESGGGLVQAGGSLRLSCAASGFIFGHYAMGWYRQAPGKERELVATISSGGSTKYADSVKGRFTISRDNAKNTVYLQMNSLKPEDTAVYYCAKKLWYLYHHYDYWGQGTQVTVSS"
  REPORTED_ENDPOINT: "polyreactivity (PSR sort gate)"
  RESULT_VALUE: "low polyreactivity"
- CONSTRUCT_SEQUENCE: "QEQLQERGGGLVQAGGSQRLGCAASGNISDAGYMGLYRQAPGKERELVAAIAAGSNTNYADSVKGRFTISRDNAKNTVYLQMNSLKPEDTAVFYCAVASYALVQYEYWGQGTQVTVNS"
  REPORTED_ENDPOINT: "polyreactivity (PSR sort gate)"
  RESULT_VALUE: "low polyreactivity"

###

EXPERIMENT: yeast display, Sf9 membrane polyspecificity reagent, FACS + sequencing; frameworks hold sequencing errors

- CONSTRUCT_SEQUENCE: "QVQLVESGGGLVQAGGSLRLSCAASGSIFYRNAMGWYRQAPGKERELVAAISSDGSTNYADSVTGRFTISRDNAKNTVYLQMNSLKPEDTAVYYCAAPWTQILDYWGQGTQVTVSS"
  polyreactivity (PSR sort gate): "low polyreactivity"
- CONSTRUCT_SEQUENCE: "QVQLVESGGGLVQAGGSLRLSCAASGRTFESNAMGWYRQAPGKERELVASITDGGSTNYADSVKGRFTISRDNAKNTVYLQMNSLKPEDSAVYYCNVTKRGSLWSVPDQTYDYWGQGTQVTVSS"
  polyreactivity (PSR sort gate): "low polyreactivity"
- CONSTRUCT_SEQUENCE: "QVQLVESGGGLVQAGGSLRLSCAASGFTFRIYAMGWYRQAPGKERELVAAISWAGGSTFYADSVKGRFTISRDNAKNTVYLQMNSLKPEDTAVYYCAADTAFHYDYWGQGTQVTVSS"
  polyreactivity (PSR sort gate): "low polyreactivity"

###

EXPERIMENT: yeast display, Sf9 membrane polyspecificity reagent, FACS + sequencing; frameworks hold sequencing errors

- CONSTRUCT_SEQUENCE: "QVQLVESGGGLVQAGGSLRLSCAPSGRIFKRNTMGWYRQAPGKVRELVAAITGSSGSTYYADSVKGRFTISRDNAKNNVLLQMNSLKPEDTAVYYCNTVRSVYQYWPYNYWGQGTQETVSS"
  polyreactivity (PSR sort gate): "high polyreactivity"
- CONSTRUCT_SEQUENCE: "QVQLVESGGGLVQAGGSLRLSCAASGITFATNAMGWYRQAPGKERELVAGITSGGSTYYADSVKGRFTISRDNAKNTVYLQMNSLKPEDTAVYYCNTAVKVERDYWGQGTQVTVSS"
  polyreactivity (PSR sort gate): "low polyreactivity"
- CONSTRUCT_SEQUENCE: "QVHLVESGGGVLQAGVSLRLSCAASGFTFYGNAMGWYRQAAGKERELVAANSGRGGSTYYADSVKGRFTISRDNEKYTVYLHMNSLKPEDTAVYYCDIYVSWPLYYYWGQGTQVTVSS"
  polyreactivity (PSR sort gate): "low polyreactivity"
- CONSTRUCT_SEQUENCE: "QVPLVESGGGLVQAGGSLRLSCAASGRIFLRYDIGWYRKAPGKERELVAAIPRSGGSTYYADSVKGRFTISRDNAKNTVYLQMNSLKPEDTAVYYCAARRWGRVYTTYTGGYWGQGTQVTVSS"
  polyreactivity (PSR sort gate): "high polyreactivity"
- CONSTRUCT_SEQUENCE: "QVQLVESGGGLVQAGGSLRLSCAASGRTFVDSVMGWYRQAPGKERELVAAISRSGSTYYADSVKGRFTISRDNAKNTVYLQMNSLKPEDTAVYYCAADWSFNRSSGQYGFYYWGQGTQVTVSS"
  polyreactivity (PSR sort gate): "low polyreactivity"
- CONSTRUCT_SEQUENCE: "QVQLVESGGGLVQSGGSLRLSCAASGRTFGGYAMGWYRQAPGKERELVAAIRRSGGSTYYADSVKGLFTISRDNAKNTFYLQMKSMKPEDTAVYYCAAYGIYNVRIYYLGQGTQVTVSS"
  polyreactivity (PSR sort gate): "high polyreactivity"
- CONSTRUCT_SEQUENCE: "QGQLVESGGGLVQAGGSLRLSCDASGRIFRKYDMGWYRQAPGKERELVAAISGTGITYYADSVKGRFTISRDNANNTVYLQMNSLKPEDTAVYYCARGSKPRALSWADPSATSIYDYWGQGTQVTVSS"
  polyreactivity (PSR sort gate): "low polyreactivity"
- CONSTRUCT_SEQUENCE: "QVELVESGGGVVQAGGSLRLSCAASGYIFRAYAMGWYRQAPGKERELVAAISSRGGSKYYADSVKGRFTSSRDNAKNTVYLQMNSLIPEDTAVYYCAAAYRKPYIGYGYWGQGTQGTVSS"
  polyreactivity (PSR sort gate): "high polyreactivity"
- CONSTRUCT_SEQUENCE: "QVQLVESGVGLVQAGGSLRLSCAASGFTFCPYDKGWYRQAPGKERELVAVIIGGDSTNYADSVKGRFTISRDNAKNTVYLLMNSLKPEDTAVYYCASDYIDRVGWMDYWGQGTQVTVSS"
  polyreactivity (PSR sort gate): "low polyreactivity"
- CONSTRUCT_SEQUENCE: "QVQLVESGGGLVQAGGSLRLSCAASGSILYRNAMGWYRQAPGKERELVAGITRRGGSTYYADSVKGRFTISRDNAKNTVYLQMISLKPEDTAVYYCNVQRARRQRQYGYWGQGTQVTVSS"
  polyreactivity (PSR sort gate): "low polyreactivity"
- CONSTRUCT_SEQUENCE: "QVQLVESCGGLVQAGGRLRLSCAASGRNFQQYAMGWSRQAPGKERELVAAISRGGSTYYADSVKGRFTISRDNAKNTVYLQMNRLKPEDTAVYYCAARWWRRFSGSHSLYDYWGQGTQVTVSS"
  polyreactivity (PSR sort gate): "high polyreactivity"

Source: the nanobody polyreactivity screen of Harvey et al. (2022)
